Hey, just so you know, these numbers are from patent US20250179047A1.

Target: BCL2 D103Y (Homo sapiens, UniProt P10415, D103Y)
Assay: TR-FRET competitive binding assay, BCL2 D103Y
Conditions: Ki determined from IC50, read-out: TR_FRET EKI_Bcl2 D103Y
pKi: −log10 of the molar value.
measure: pKi

compound	pKi
Cc1c(N(C(=O)c2cc(-c3cc4c(cc3C(=O)N3Cc5ccccc5C[C@H]3C)CN(C(=O)C(F)(F)c3ccc(N5CCN(C)CC5)cc3)CC4)n(C)c2C)c2ccc(O)cc2)cc(C#N)n1C [Example 26]	9.08
COc1ccc(N(C(=O)c2cc(-c3cc4c(cc3C(=O)N3Cc5ccccc5C[C@H]3C)CN(C(=O)Cc3ccc(OCCN5CCOCC5)cc3)CC4)n(C)c2C)c2ccc(F)cc2)cc1C#N [Example 209]	9.68

a. Cc1c(N(C(=O)c2cc(-c3cc4c(cc3C(=O)N3Cc5ccccc5C[C@H]3CN3CCCCC3)CN(C(=O)Cc3ccc(OCCN5CCOCC5)cc3F)CC4)n3ccccc23)c2ccc(O)cc2)cc(C#N)n1C [Example 136]
b. Cc1c(N(C(=O)c2cc(-c3cc4c(cc3C(=O)N3Cc5ccccc5C[C@H]3C)CN(C(=O)Cc3ccc(OCCN5CCOCC5)cc3F)CC4)n(C)c2C)c2ccccc2)cc(C#N)n1C [Example 234]
Kindly identify the item with the lower pKi figure among these two: a and b Pick one and reply with its label. a
(a: 9.49, b: 9.80)
